The entries below are paired with their reported pKi.
- target or system: MASP-2 (CCP1-CCP2-SP) (Homo sapiens, UniProt O00187)
- Construct: 15 μL of Enzyme MASP-2 (CCP1-CCP2-SP) in Assay Buffer
- Sequence (O00187 445-686 limits assumed): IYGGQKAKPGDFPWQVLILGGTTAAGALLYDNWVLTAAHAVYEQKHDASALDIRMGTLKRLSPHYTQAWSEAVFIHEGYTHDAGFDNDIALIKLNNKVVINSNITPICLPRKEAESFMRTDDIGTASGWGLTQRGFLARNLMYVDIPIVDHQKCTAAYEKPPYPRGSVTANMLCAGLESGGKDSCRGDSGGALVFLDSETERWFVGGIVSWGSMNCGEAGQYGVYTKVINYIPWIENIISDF
- Sequence (O00187 298-444 partner limits assumed): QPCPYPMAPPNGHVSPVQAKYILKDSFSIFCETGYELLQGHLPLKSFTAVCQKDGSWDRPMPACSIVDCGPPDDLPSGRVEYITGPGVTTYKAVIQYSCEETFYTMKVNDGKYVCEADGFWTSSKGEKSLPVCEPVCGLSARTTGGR
- protocol text: Enzymatic Assay for MASP-2
- condition parameters: fluorogenic substrate based on C2 cleavage site, room temperature, 20 mM HEPES pH 7.4
pKi: −log10 of the molar value. Where a name gives a salt, the structure may show the parent alone.

Consider the following illustrative entries.
INSERT INTO results (molecule, target_or_system, measured) VALUES
  ('Cc1nc(N)ccc1CNC(=O)Cn1c(C#Cc2ccccc2)cnc(NCCc2ccccc2)c1=O [Compound 26]', 'MASP-2 (CCP1-CCP2-SP) (Homo sapiens, UniProt O00187)', '5.60 to 6.30'),
  ('O=C(Cn1c(-c2ccccc2)cnc(NCc2cccc(Cl)c2)c1=O)NCc1cc2cnccc2[nH]1 [Compound 75, trifluoroacetate]', 'MASP-2 (CCP1-CCP2-SP) (Homo sapiens, UniProt O00187)', '> 6.30'),
  ('Cc1cc2[nH]c(CNC(=O)Cn3c(-c4ccccc4)cnc(NCCc4ccccc4)c3=O)cc2cn1 [Compound 67, Trifluoroacetate]', 'MASP-2 (CCP1-CCP2-SP) (Homo sapiens, UniProt O00187)', '> 6.30'),
  ('O=C(Cn1c(-c2cccc(CO)c2)cnc(NCCc2ccccc2)c1=O)NCc1cc2cnccc2[nH]1 [Compound 88, trifluoroacetate]', 'MASP-2 (CCP1-CCP2-SP) (Homo sapiens, UniProt O00187)', '> 6.30'),
  ('Cc1nc(N)ccc1CNC(=O)Cn1c(=O)c(NCCc2ccccc2)cn(C)c1=O [Compound 34]', 'MASP-2 (CCP1-CCP2-SP) (Homo sapiens, UniProt O00187)', '> 6.30'),
  ('Cc1nc(N)ccc1CNC(=O)Cn1c(-c2ccccc2)c(Cl)nc(N(C)C)c1=O [Compound 39]', 'MASP-2 (CCP1-CCP2-SP) (Homo sapiens, UniProt O00187)', '5.00 to 5.60'),
  ('O=C(Cn1c(-c2ccccc2)cnc(NCC2(c3ccc(F)cc3)CC2)c1=O)NCc1cc2cnccc2[nH]1 [Compound 59, trifluoroacetate]', 'MASP-2 (CCP1-CCP2-SP) (Homo sapiens, UniProt O00187)', '> 6.30'),
  ('Cc1nc(N)ccc1CNC(=O)Cn1c(-c2ccnc(N)c2)cnc(NCCc2ccccc2)c1=O [Compound 84]', 'MASP-2 (CCP1-CCP2-SP) (Homo sapiens, UniProt O00187)', '> 6.30');

### Prompt Form field: pKi recorded for O=C(Cn1c(-c2ccccc2)cnc(NCC(F)(F)c2ccccc2)c1=O)NCc1cc2cnccc2[nH]1 [Compound 128, trifluoroacetate] with MASP-2 (CCP1-CCP2-SP) (Homo sapiens, UniProt O00187) (enter value)
### Response > 6.30

### Prompt Form field: pKi recorded for O=C(Cn1c(Br)cnc(NCCc2ccccc2)c1=O)NCc1cc2cnccc2[nH]1 [Compound 109] with MASP-2 (CCP1-CCP2-SP) (Homo sapiens, UniProt O00187) (enter value)
### Response > 6.30

### Prompt Form field: pKi recorded for O=C(Cn1c(-c2ccccc2)cnc(NCC2(c3ccccc3)CCOC2)c1=O)NCc1cc2cnccc2[nH]1 (stereo not drawn) [Compound 50, trifluoroacetate] with MASP-2 (CCP1-CCP2-SP) (Homo sapiens, UniProt O00187) (enter value)
### Response > 6.30
